- Procedure details: Metabolic stability in mouse plasma assessed as compound remaining at 1 uM after 60 mins by LC-MS/MS analysis
- Format: ADME, cell-free
- Study conditions: read-out: Stability
Assign labels as follows, please: met for remaining at 1 h, 1 µM below 60%; not met for remaining at 1 h, 1 µM equal to or exceeding 60%.

{"columns": ["Query smiles", "Assigned label"],
 "data": [
  ["CCn1c(CCCc2ccc(OC(C)(C)C(=O)NS(=O)(=O)C3CCCC3)cc2)nn(Cc2ccc(C(C)(C)C)cc2)c1=O", "met"],
  ["CCn1c(CCCc2ccc(OC(C)(C)C(=O)NS(=O)(=O)C3CCCCC3)cc2)nn(Cc2ccc(C(C)(C)C)cc2)c1=O", "met"],
  ["CCn1c(CCCc2ccc(OC(C)(C)C(=O)NS(=O)(=O)c3ccc(C)cc3)cc2)nn(Cc2ccc(C(C)(C)C)cc2)c1=O", "not met"],
  ["CCn1c(CCCc2ccc(OC(C)(C)C(=O)NS(=O)(=O)C3CC3)cc2)nn(Cc2ccc(C(C)(C)C)cc2)c1=O", "met"],
  ["CCn1c(CCCc2ccc(OC(C)(C)C(=O)NS(=O)(=O)c3ccccc3)cc2)nn(Cc2ccc(C(C)(C)C)cc2)c1=O", "met"],
  ["CCn1c(CCCc2ccc(OC(C)(C)C(=O)NS(=O)(=O)c3ccoc3)cc2)nn(Cc2ccc(C(C)(C)C)cc2)c1=O", "not met"],
  ["CCn1c(CCCc2ccc(OC(C)(C)C(=O)NS(=O)(=O)c3ccc(C(F)(F)F)cc3)cc2)nn(Cc2ccc(C(C)(C)C)cc2)c1=O", "not met"]
]}

====

Readings of AUC for the listed molecules
- Procedure details: AUC in CD-1 mouse at 30 mg/kg, ip
- Type: ADME, organism-based
- Design: dose 30 mg/kg, route intraperitoneal
- Study conditions: plasma
Experimental endpoint: AUC (ng·h/mL)

{"columns": ["Query smiles", "Experimental endpoint", "Measurement unit", "Recorded result"],
 "data": [
  ["CCn1c(CCCc2ccc(-c3ccc(NS(=O)(=O)c4ccccc4)cn3)cc2)nn(Cc2ccc(C(C)(C)C)cc2)c1=O", "AUC", "ng·h/mL", 3400],
  ["CCn1c(CCCc2ccc(-c3ccc(NS(=O)(=O)c4ccc(-c5ccc(OC)cc5)cc4)cc3)cc2)nn(Cc2ccc(C(C)(C)C)cc2)c1=O", "AUC", "ng·h/mL", 23000]
]}

====

- Assayed system: Peroxisome proliferator-activated receptor alpha (Homo sapiens, UniProt Q07869)
- Sequence (Q07869 whole entry): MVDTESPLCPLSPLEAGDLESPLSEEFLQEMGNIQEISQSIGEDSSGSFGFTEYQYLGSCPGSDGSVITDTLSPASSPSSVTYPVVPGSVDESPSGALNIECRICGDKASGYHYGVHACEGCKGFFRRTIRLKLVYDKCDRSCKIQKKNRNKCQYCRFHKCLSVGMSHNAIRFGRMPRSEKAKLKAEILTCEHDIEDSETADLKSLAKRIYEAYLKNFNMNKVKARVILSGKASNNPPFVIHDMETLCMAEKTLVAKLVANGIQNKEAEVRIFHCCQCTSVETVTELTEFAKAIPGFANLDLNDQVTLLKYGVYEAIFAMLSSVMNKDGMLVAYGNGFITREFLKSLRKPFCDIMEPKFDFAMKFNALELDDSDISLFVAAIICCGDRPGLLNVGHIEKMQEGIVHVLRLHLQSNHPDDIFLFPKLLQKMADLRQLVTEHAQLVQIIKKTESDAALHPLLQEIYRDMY
- Procedure details: Antagonist activity at human PPAR-alpha assessed as inhibition of GW7647-induced effect after overnight incubation by cell-based luciferase reporter gene assay
Assign labels as follows, please: 1 for IC50 below 80 nM; 0 for IC50 equal to or exceeding 80 nM.

{"columns": ["Query smiles", "Assigned label"],
 "data": [
  ["CCn1c(CCCc2ccc(-c3ccc(NS(=O)(=O)c4ccccc4)nc3)cc2)nn(Cc2ccc(C(C)(C)C)cc2)c1=O", 0],
  ["CCn1c(CCCc2ccc(-c3ccc(NS(=O)(=O)c4ccccc4)cc3)cc2)nn(Cc2ccc(C(C)(C)C)cc2)c1=O", 1],
  ["CCn1c(CCCc2ccc(CC(C)(C)C(=O)NS(=O)(=O)c3ccccc3)cc2)nn(Cc2ccc(C(C)(C)C)cc2)c1=O", 1],
  ["CCn1c(CCCc2ccc(OC(C)(C)C(=O)NS(=O)(=O)C3CCCC3)cc2)nn(Cc2ccc(C(C)(C)C)cc2)c1=O", 1],
  ["CCn1c(CCCc2ccc(-c3cccc(NS(=O)(=O)c4ccccc4)c3)cc2)nn(Cc2ccc(C(C)(C)C)cc2)c1=O", 0]
]}

Ref: ChEMBL document CHEMBL3259631
